- EXPERIMENTAL_PROTOCOL: total protein half-life in vivo (active degradation + dilution); higher = more stable protein
- PROTOCOL_CONDITIONS: E. coli NCM3722 delta-hslV; growth: N-lim chemostat; doubling time 6 h
Listed here: items and their measured total protein half-life in vivo.
Report as a plain number; the unit h is understood.

Read off the recorded total protein half-life in vivo for MNNTPRYPQRVRNDLRFRELTVLRVERISAGFQRIVLGGEALDGFTSRGFDDHSKLFFPQPDAHFVPPTVTEEGIVWPEGPRPPSRDYTPLYDELRHELAIDFFIHDGGVASGWAMQAQPGDKLTVAGPRGSLVVPEDYAYQLYVCDESGMPALRRRLETLSKLAVKPQVSALVSVRDNACQDYLAHLDGFNIEWLAHDEQAVDARLAQMQIPADDYFIWITGEGKVVKNLSRRFEAEQYDPQRVRAAAYWHAK 4.7

----------
- EXPERIMENTAL_PROTOCOL: total protein half-life in vivo (active degradation + dilution); higher = more stable protein
- PROTOCOL_CONDITIONS: E. coli NCM3722 delta-clpP delta-lon delta-hslV; growth: N-lim chemostat; doubling time 6 h
TEST_READOUT: total protein half-life in vivo (h)
Give the number; h is assumed, so skip it.

Solved cases (5 shown):
Respond only with total protein half-life in vivo recorded for MKIELTVNGLKIQAQYQNEEIENVHKPLLHMLAALQTVNPQRRTVVFLCAPPGTGKSTLTTFWEYLAQQDPELPAIQTLPMDGFHHYNSWLDAHQLRPFKGAPETFDVAKLTENLRQVVEGDCTWPQYDRQKHDPVEDALHVTAPLVIVEGNWLLLDDEKWLELASFCDFSIFIHAPAQILRERLISRKIAGGLTRQVAEAFYARTDGPNVERVLMNSRQANLIVEMTEEGRYHFTS 5.96

Check the records and state total protein half-life in vivo for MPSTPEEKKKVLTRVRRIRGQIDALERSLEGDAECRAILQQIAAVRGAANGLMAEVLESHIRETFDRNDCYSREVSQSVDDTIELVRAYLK [P0AAP3] 6.53

Give the measured total protein half-life in vivo for MPLLDIRNLTIEFKTGDEWVKAVDRVSMTLTEGEIRGLVGESGSGKSLIAKAICGVNKDNWRVTADRMRFDDIDLLRLSARERRKLVGHNVSMIFQEPQSCLDPSERVGRQLMQNIPAWTYKGRWWQRFGWRKRRAIELLHRVGIKDHKDAMRSFPYELTEGECQKVMIAIALANQPRLLIADEPTNSMEPTTQAQIFRLLTRLNQNSNTTILLISHDLQMLSQWADKINVLYCGQTVETAPSKELVTMPHHPYTQALIRAIPDFGSAMPHKSRLNTLPGAIPLLEQLPIGCRLGPRCPYAQRECIVTPRLTGAKNHLYACHFPLNMEKE [P0AAH4] 6.47

Give the reported value of total protein half-life in vivo for this record: MANVEIYTKETCPYCHRAKALLSSKGVSFQELPIDGNAAKREEMIKRSGRTTVPQIFIDAQHIGGCDDLYALDARGGLDPLLK [P0AC62] 6.58

Given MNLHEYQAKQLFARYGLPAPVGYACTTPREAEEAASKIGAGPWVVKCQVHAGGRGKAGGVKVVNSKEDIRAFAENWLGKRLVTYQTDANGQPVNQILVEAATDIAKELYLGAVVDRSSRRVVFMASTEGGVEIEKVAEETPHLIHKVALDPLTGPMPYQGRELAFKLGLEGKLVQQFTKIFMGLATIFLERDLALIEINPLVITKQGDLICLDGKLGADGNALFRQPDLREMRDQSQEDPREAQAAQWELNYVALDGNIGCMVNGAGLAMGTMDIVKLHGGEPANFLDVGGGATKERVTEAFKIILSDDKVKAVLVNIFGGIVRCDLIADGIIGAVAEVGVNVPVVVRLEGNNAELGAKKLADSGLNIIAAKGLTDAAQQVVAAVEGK [P0A836] , respond with its total protein half-life in vivo. 4.73

Next:
Please report total protein half-life in vivo for the following sequence: MNMKLKTLFAAAFAVVGFCSTASAVTYPLPTDGSRLVGQNQVITIPEGNTQPLEYFAAEYQMGLSNMMEANPGVDTFLPKGGTVLNIPQQLILPDTVHEGIVINSAEMRLYYYPKGTNTVIVLPIGIGQLGKDTPINWTTKVERKKAGPTWTPTAKMHAEYRAAGEPLPAVVPAGPDNPMGLYALYIGRLYAIHGTNANFGIGLRVSHGCVRLRNEDIKFLFEKVPVGTRVQFIDEPVKATTEPDGSRYIEVHNPLSTTEAQFEGQEIVPITLTKSVQTVTGQPDVDQVVLDEAIKNRSGMPVRLN [P0AAX8] 6.81

Look up and report measured total protein half-life in vivo for this entry: MNNHFGKGLMAGLKATHADSAVNVTKFCADYKRGFVLGYSHRMYEKTGDRQLSAWEAGILTRRYGLDKEMVMDFFRENNSCSTLRFFMAGYRLEN 4.99

Taken from the supplement of paper PMC11246515.
